test_readout: melting point

Worked cases, melting point given:
[[record]]
molecule_smiles = "Cl.Clc1ccccc1Oc1ccc(-c2c[nH]c(COc3ccccc3)n2)cc1"
test_readout = "melting point"
obs_value = "158 to 160 °C"

[[record]]
molecule_smiles = "Fc1ccccc1COc1ccc(-c2c[nH]c(COc3ccccc3)n2)cc1"
test_readout = "melting point"
obs_value = "182 to 183 °C"

[[record]]
molecule_smiles = "Brc1ccc(Oc2ccc(-c3c[nH]c(COc4ccccc4)n3)cc2)cc1.O=C(O)C(F)(F)F"
test_readout = "melting point"
obs_value = "174 to 176 °C"

[[record]]
molecule_smiles = "CS(=O)(=O)c1ccc(Oc2ccc(-c3c[nH]c(COc4ccccc4)n3)cc2)cc1"
test_readout = "melting point"
obs_value = "143 to 145 °C"

[[record]]
molecule_smiles = "Cl.NCc1ccc(Oc2ccc(-c3c[nH]c(COc4ccccc4)n3)cc2)cc1"
test_readout = "melting point"
obs_value = "> 300 °C"

[[record]]
molecule_smiles = "O=S(=O)(c1ccccc1)c1ccc(-c2c[nH]c(COc3ccccc3)n2)cc1"
test_readout = "melting point"
obs_value = "192 to 194 °C"

[[record]]
molecule_smiles = "Fc1cccc(Oc2ccc(-c3c[nH]c(COc4ccccc4)n3)cc2)c1F"
test_readout = "melting point"
obs_value = "127 to 129 °C"

[[record]]
molecule_smiles = "Fc1ccc(Oc2ccc(-c3c[nH]c(COc4ccccc4)n3)cc2)c(F)c1"
test_readout = "melting point"
obs_value = "131 to 133 °C"

[[record]]
molecule_smiles = "CSc1ccc(Oc2ccc(-c3c[nH]c(COc4ccccc4)n3)cc2)cc1"
test_readout = "melting point"
obs_value = "122 to 124 °C"

[[record]]
molecule_smiles = "Fc1cccc(Oc2ccc(-c3c[nH]c(COc4ccccc4)n3)cc2)c1"
test_readout = "melting point"
obs_value = "177 to 179 °C"


Challenge: Quickly give me recorded melting point for Cl.c1ccc(OCc2nc(-c3ccc(OCCN4CCCCC4)cc3)c[nH]2)cc1
Response given: 227 to 229 °C

Challenge: Quickly give me recorded melting point for CCCCCCc1ccc(-c2c[nH]c(COc3ccccc3)n2)cc1
Response given: 151 to 153 °C

====

test_readout: melting point

[[record]]
molecule = "CCOC(=O)c1ccc(Oc2ccc(-c3c[nH]c(COc4ccccc4)n3)cc2)cc1 [Example 25]"
obs_value = "100 to 102 °C"

[[record]]
molecule = "c1ccc(OCc2nc(-c3ccc(-c4ccccc4)cc3)c[nH]2)cc1 [Example 3]"
obs_value = "185 to 187 °C"

[[record]]
molecule = "O=C(Nc1ccc(-c2c[nH]c(COc3ccccc3)n2)cc1)c1ccc(F)cc1 [Example 22]"
obs_value = "224 to 225 °C"


Challenge: Quickly give me recorded melting point for Cl.Nc1ccccc1Oc1ccc(-c2c[nH]c(COc3ccccc3)n2)cc1
Response given: 88 to 89 °C

Challenge: Quickly give me recorded melting point for Cc1[nH]c(COc2ccccc2)nc1-c1ccc(Oc2ccc(F)cc2)cc1 [Example 21]
Response given: < 40 °C

Challenge: Quickly give me recorded melting point for CCOC(=O)c1ccc(-c2c[nH]c(COc3ccccc3)n2)cc1 [Example 24]
Response given: 133 to 135 °C

Challenge: Quickly give me recorded melting point for O=C(O)C(F)(F)F.O=C(c1ccccc1)c1ccc(-c2c[nH]c(COc3ccccc3)n2)cc1
Response given: < 50 °C

Challenge: Quickly give me recorded melting point for O=C(O)C(F)(F)F.c1ccc(OCc2nc(-c3ccc(Oc4ccccc4)cc3)c[nH]2)cc1
Response given: 112 to 114 °C

Challenge: Quickly give me recorded melting point for O=C(Nc1ccc(F)cc1)c1ccc(-c2c[nH]c(COc3ccccc3)n2)cc1.O=C(O)C(F)(F)F
Response given: 198 to 200 °C
